system: Mycobacterium smegmatis (Msm) strain ATCC 607; test: Two-dimensional checkerboard assay incorporating resazurin (REMA MIC) against Msm; format: cell-based; settings: Msm; BDQ in combination with the labelled EI
Recorded MIC 99 fold reduction of anti-TB drug BDQ for the following molecules
Kindly provide the numeric value in fold only, without the unit symbol.

Before answering, review these 2 worked examples.
COc1cc(C2c3c(cc(OC)c(O)c3OC)CC(CO)C2CO)cc(OC)c1O (stereo not shown) [LYO, lyoniresinol]
8
COC(=O)[C@H]1[C@H]2C[C@@H]3c4[nH]c5cc(OC)ccc5c4CCN3C[C@H]2C[C@@H](OC(=O)c2cc(OC)c(OC)c(OC)c2)[C@@H]1OC [RES, reserpine]
2

input: Give recorded MIC 99 fold reduction of anti-TB drug BDQ. COc1ccc2cc3[n+](cc2c1OC)CCc1cc2c(cc1-3)OCO2 [BER, Berberine chloride]
output: 10

input: Give recorded MIC 99 fold reduction of anti-TB drug BDQ. COc1cc([C@H]2c3c(cc(OC)c(O)c3OC)C[C@@H](CO)[C@@H]2CO[C@@H]2O[C@H](CO)[C@@H](O)[C@H](O)[C@H]2O)cc(OC)c1O [LYO-3]
output: 20

---

tested on: Mycobacterium smegmatis (Msm) strain ATCC 607; assay: Two-dimensional checkerboard assay incorporating resazurin (REMA MIC) against Msm; assay type: cell-based; details: Mycolicibacterium smegmatis, ATCC607, Msm; compound tested singly; read-out: MIC 99 singly
Counter-ions that a name gives are not always drawn.
Measured metric: MIC99 (µM)
Kindly provide the numeric value in µM only, without the unit symbol.

COc1cc(C2c3c(cc(OC)c(O)c3OC)CC(CO)C2CO)cc(OC)c1O (stereo not drawn) [LYO, lyoniresinol]
200

Now for a further compound.
input: Give recorded MIC99. COc1nc2ccc(Br)cc2cc1[C@@H](c1ccccc1)[C@@](O)(CCN(C)C)c1cccc2ccccc12 [BDQ, bedaquiline fumarate]
output: 0.78

---

system: Mycobacterium smegmatis (Msm) strain ATCC 607; assay: Two-dimensional checkerboard assay incorporating resazurin (REMA MIC) against Msm; format: cell-based; conditions: Mycolicibacterium smegmatis, ATCC607, Msm; compound tested singly; read-out: MIC 99 singly
Measured metric: MIC99 (µM)
Kindly provide the numeric value in µM only, without the unit symbol.

Before answering, review these 4 worked examples.
C[C@H]1c2cccc(O)c2C(=O)C2=C(O)[C@]3(O)C(=O)C(C(N)=O)=C(O)[C@@H](N(C)C)[C@@H]3[C@@H](O)[C@@H]21 [DOX, doxycycline hyclate]
36
O=C(/C=C/C=C/c1ccc2c(c1)OCO2)N1CCCCC1
120
CC(C)/N=c1\cc2n(-c3ccc(Cl)cc3)c3ccccc3nc-2cc1Nc1ccc(Cl)cc1
0.08
COc1cc([C@H]2c3c(cc(OC)c(O)c3OC)C[C@@H](CO)[C@@H]2CO[C@@H]2O[C@H](CO)[C@@H](O)[C@H](O)[C@H]2O)cc(OC)c1O
100

Now for a further compound.
input: Identify measured MIC99 obtained with Mycobacterium smegmatis (Msm) strain ATCC 607 for COc1ccc2cc3[n+](cc2c1OC)CCc1cc2c(cc1-3)OCO2 [BER, Berberine chloride] .
output: 110

---

system: Mycobacterium smegmatis (Msm) strain ATCC 607; test: Two-dimensional checkerboard assay incorporating resazurin (REMA MIC) against Msm; format: cell-based; details: Msm; labelled EI in combination with BDQ; synergy FICI ≤ 0.5
Measured metric: FICI
// no unit string in output, number only

Before answering, review these 3 worked examples.
COc1ccc2cc3[n+](cc2c1OC)CCc1cc2c(cc1-3)OCO2 [BER, Berberine chloride]
0.23
O=C(/C=C/C=C/c1ccc2c(c1)OCO2)N1CCCCC1
2
COc1cc([C@H]2c3c(cc(OC)c(O)c3OC)C[C@@H](CO)[C@@H]2CO[C@@H]2O[C@H](CO)[C@@H](O)[C@H](O)[C@H]2O)cc(OC)c1O
0.3

Now for a further compound.
input: Give recorded FICI. COc1cc(C2c3c(cc(OC)c(O)c3OC)CC(CO)C2CO)cc(OC)c1O (stereo not shown)
output: 0.18

---

test system: Mycobacterium smegmatis (Msm) strain ATCC 607; experiment: Two-dimensional checkerboard assay incorporating resazurin (REMA MIC) against Msm; format: cell-based; conditions: Msm; in combination with CFZ
Recorded MIC 99 combination (EI) for the following molecules

Before answering, review these 4 worked examples.
COc1cc([C@H]2c3c(cc(OC)c(O)c3OC)C[C@@H](CO)[C@@H]2CO[C@@H]2O[C@H](CO)[C@@H](O)[C@H](O)[C@H]2O)cc(OC)c1O [LYO-3]
99.99 µM
COC(=O)[C@H]1[C@H]2C[C@@H]3c4[nH]c5cc(OC)ccc5c4CCN3C[C@H]2C[C@@H](OC(=O)c2cc(OC)c(OC)c(OC)c2)[C@@H]1OC [RES, reserpine]
>2239.3 µM
COc1cc(C2c3c(cc(OC)c(O)c3OC)CC(CO)C2CO)cc(OC)c1O (centres unmarked) [LYO, lyoniresinol]
200 µM
O=C(/C=C/C=C/c1ccc2c(c1)OCO2)N1CCCCC1 [PIP, piperine]
29.99 µM

Now for a further molecule.
input: Give recorded MIC 99 combination (EI). COc1ccc2cc3[n+](cc2c1OC)CCc1cc2c(cc1-3)OCO2 [BER, Berberine chloride]
output: 53.99 µM

Reference source for all entries: paper PMC13077286
